# Test system: Tyrosine-protein kinase ABL1 (Homo sapiens), P00519 [E255K]
# Sequence (P00519 whole entry E255K): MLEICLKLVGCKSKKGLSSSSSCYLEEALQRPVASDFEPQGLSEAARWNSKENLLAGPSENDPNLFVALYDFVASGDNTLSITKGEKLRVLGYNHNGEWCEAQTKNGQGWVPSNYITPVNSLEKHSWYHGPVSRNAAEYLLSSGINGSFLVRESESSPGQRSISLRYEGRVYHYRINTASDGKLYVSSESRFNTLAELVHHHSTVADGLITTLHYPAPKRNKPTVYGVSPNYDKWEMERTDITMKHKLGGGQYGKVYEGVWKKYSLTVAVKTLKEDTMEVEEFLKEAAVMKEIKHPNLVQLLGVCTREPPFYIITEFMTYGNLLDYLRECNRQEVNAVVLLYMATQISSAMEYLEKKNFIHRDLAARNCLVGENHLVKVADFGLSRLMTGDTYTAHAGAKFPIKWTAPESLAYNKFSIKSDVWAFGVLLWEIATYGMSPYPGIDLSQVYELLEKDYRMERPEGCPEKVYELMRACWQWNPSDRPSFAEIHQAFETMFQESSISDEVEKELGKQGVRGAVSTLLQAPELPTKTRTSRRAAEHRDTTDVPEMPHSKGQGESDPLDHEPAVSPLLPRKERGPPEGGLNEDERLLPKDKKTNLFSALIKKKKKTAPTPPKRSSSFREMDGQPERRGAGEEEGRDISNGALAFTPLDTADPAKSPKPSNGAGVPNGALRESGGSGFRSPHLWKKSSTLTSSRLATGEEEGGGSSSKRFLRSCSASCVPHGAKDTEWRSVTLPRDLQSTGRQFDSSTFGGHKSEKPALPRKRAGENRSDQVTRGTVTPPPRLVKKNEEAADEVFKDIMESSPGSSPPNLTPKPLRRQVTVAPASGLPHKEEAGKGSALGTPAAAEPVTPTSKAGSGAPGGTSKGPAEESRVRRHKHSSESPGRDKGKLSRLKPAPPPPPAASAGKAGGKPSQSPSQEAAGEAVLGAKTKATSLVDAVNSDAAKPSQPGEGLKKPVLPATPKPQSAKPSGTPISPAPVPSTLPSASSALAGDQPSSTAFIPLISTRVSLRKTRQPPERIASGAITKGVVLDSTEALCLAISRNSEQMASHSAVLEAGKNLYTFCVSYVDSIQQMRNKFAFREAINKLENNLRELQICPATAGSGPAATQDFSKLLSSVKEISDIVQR
# conditionSummary: at 0.1 µM

substanceSmiles: CNC(=O)c1cc(-c2ccc(F)cc2)cc(-c2ccc(S(=O)(=O)N3CCCC3)cc2)c1N
inhibition (%): 2.54
//
substanceSmiles: CC(C)COC(=O)c1ccc2c(c1)/C(=C/Nc1ccc(S(N)(=O)=O)cc1)C(=O)N2
inhibition (%): 1.63
//
substanceSmiles: COc1cc(Nc2nccc(Nc3ccc4c(C)n[nH]c4c3)n2)cc(OC)c1OC
inhibition (%): 18.5
//
substanceSmiles: COc1cc(/C=N/Nc2ncnc3[nH]ncc23)ccc1O
inhibition (%): 36.5
//
substanceSmiles: CCN1CCC(CC(=O)Nc2n[nH]c3nnc(-c4cccc(F)c4F)cc23)CC1
inhibition (%): 1.76
//
substanceSmiles: Nc1nc(-c2cccc(Cl)c2)c(-c2ccc3ncccc3n2)s1
inhibition (%): 3.98
//
substanceSmiles: CN1CCC(n2cnc(-c3ccc(F)cc3)c2-c2ccnc(N)n2)CC1
inhibition (%): 3.04
//
substanceSmiles: CS(=O)(=O)CCNCc1coc(-c2ccc3ncnc(Nc4ccc(OCc5ccccc5)cc4)c3c2)c1
inhibition (%): 1.64
//
substanceSmiles: CCn1c(-c2nonc2N)nc2ccccc21
inhibition (%): 3.43
//
substanceSmiles: COC(=O)Nc1nc2ccc(Oc3ccc(NC(=O)Nc4cccc(Cl)c4)cc3)cc2[nH]1
inhibition (%): 3.36
//
substanceSmiles: Nc1nc(-c2ccc(F)cc2)c(-c2ccc3ncccc3n2)s1
inhibition (%): 6.26
//
substanceSmiles: CCn1cc(-c2ccnc3[nH]ccc23)c(-c2cccc(NC(=O)Nc3ccc(OCc4ccccc4)cc3)c2)n1
inhibition (%): 1.22
//
substanceSmiles: Nc1ncc(-c2cccc(S(N)(=O)=O)c2)c2scc(-c3ccc(F)c(Cl)c3)c12
inhibition (%): 35.4
//
substanceSmiles: CNC(=O)c1cncc(/C=C/c2ccccc2Cl)c1
inhibition (%): -0.16
//
substanceSmiles: CCn1c(-c2nonc2N)nc2c(C#CC(C)(C)O)ncc(OC3CCNCC3)c21
inhibition (%): -0.7
//
substanceSmiles: Cc1ccc(O)cc1Nc1ccnc2cc(-c3ccccn3)ccc12
inhibition (%): 93.5
//
substanceSmiles: COc1ccc(-c2cc(-c3c[nH]nc3-c3ccccn3)ccn2)cc1
inhibition (%): 9.84
//
substanceSmiles: N#Cc1c(NC(=O)CN2CCOCC2)sc2c1CCCC2
inhibition (%): 3.47
//
substanceSmiles: Fc1ccc(-c2nn3ccccc3c2-c2ccncc2)cc1
inhibition (%): 1.77
//
substanceSmiles: CC(=O)NCc1cccc(C#Cc2cncnc2Nc2ccc(OCc3cccc(F)c3)c(Cl)c2)c1
inhibition (%): -0.06
//
substanceSmiles: COc1ccc2c(-c3ccnc(Nc4cccc(OC(F)(F)F)c4)n3)cnn2n1
inhibition (%): 3.39
//
substanceSmiles: CCOc1ccc2c(-c3ccnc(Nc4cccc(C(F)(F)F)c4)n3)cnn2n1
inhibition (%): 2.13

###

# tgt: cAMP-dependent protein kinase catalytic subunit alpha (Homo sapiens)
# conditionSummary: at 1 µM

substanceSmiles: COc1cccc(-c2c[nH]c3c(N/N=C/c4ccncc4)ncnc23)c1
inhibition [%]: 3.93
--
substanceSmiles: N#Cc1c(NC(=O)CN2CCOCC2)sc2c1CCCC2
inhibition [%]: 1.82
--
substanceSmiles: CNC(=O)c1cc(-c2ccc(F)cc2)cc(-c2ccc(S(=O)(=O)N3CCCC3)cc2)c1N
inhibition [%]: 0.32
--
substanceSmiles: FC(F)(F)c1cccc(-c2nn3ncccc3c2-c2ccnc(Nc3ccc4c(c3)OCCO4)n2)c1
inhibition [%]: 2.39
--
substanceSmiles: CS(=O)(=O)CCNCc1ccc(-c2ccc3ncnc(Nc4ccc(OCc5ccccc5)c(C(F)(F)F)c4)c3c2)o1
inhibition [%]: 1.5

###

# tgt: RAC-gamma serine/threonine-protein kinase (Homo sapiens) (UniProt Q9Y243)
# Sequence (Q9Y243 whole entry): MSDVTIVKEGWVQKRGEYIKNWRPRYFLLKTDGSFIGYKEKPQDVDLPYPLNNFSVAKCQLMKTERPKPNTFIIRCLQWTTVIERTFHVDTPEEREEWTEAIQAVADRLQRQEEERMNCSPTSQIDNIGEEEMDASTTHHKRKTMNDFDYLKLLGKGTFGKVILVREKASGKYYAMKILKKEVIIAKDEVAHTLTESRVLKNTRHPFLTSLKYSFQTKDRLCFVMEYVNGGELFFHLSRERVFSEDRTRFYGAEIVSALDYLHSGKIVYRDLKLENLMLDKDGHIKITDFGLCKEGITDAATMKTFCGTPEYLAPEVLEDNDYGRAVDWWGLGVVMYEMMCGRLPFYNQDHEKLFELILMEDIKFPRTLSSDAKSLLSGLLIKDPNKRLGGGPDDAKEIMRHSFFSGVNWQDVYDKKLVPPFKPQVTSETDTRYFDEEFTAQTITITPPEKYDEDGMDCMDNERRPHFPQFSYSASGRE
# conditionSummary: at 0.1 µM
# Description: GSK_PKIS: AKT3 mean inhibition at 0.1 uM [Nanosyn]

substanceSmiles: CS(=O)(=O)CCNCc1ccc(-c2ccc3ncnc(Nc4ccc(OCc5ccccc5)c(C(F)(F)F)c4)c3c2)o1
inhibition [%]: 0.3
--
substanceSmiles: Fc1ccc(-c2cc(-c3c[nH]nc3-c3ccccn3)ccn2)cc1
inhibition [%]: 0.98
--
substanceSmiles: COc1ccc(-c2nn3ncccc3c2-c2ccnc(Nc3ccc4c(c3)OCCO4)n2)cc1
inhibition [%]: 0.24
--
substanceSmiles: Fc1ccc(-c2nn3ccccc3c2-c2ccncc2)cc1
inhibition [%]: 1.01
--
substanceSmiles: COc1cccc(-n2ncc3c(N/N=C/c4ccc(F)cc4)ncnc32)c1
inhibition [%]: 1.42
--
substanceSmiles: FC(F)(F)c1cccc(-c2nn3ncccc3c2-c2ccnc(Nc3ccc4c(c3)OCCO4)n2)c1
inhibition [%]: 1.47
--
substanceSmiles: NC(=O)c1sc(-n2cnc3ccc(C(F)(F)F)cc32)cc1OCc1ccccc1Br
inhibition [%]: 0.75
--
substanceSmiles: COc1cc2c(cc1Nc1nc(Nc3ccsc3C(N)=O)c3cc[nH]c3n1)N(C(=O)CN(C)C)CCC2(C)C
inhibition [%]: 0.83
--
substanceSmiles: CCN1CCC(CC(=O)Nc2n[nH]c3nnc(-c4cccc(F)c4F)cc23)CC1
inhibition [%]: -0.3

###

# tgt: Cyclin-dependent kinase 2 (Homo sapiens) (UniProt P24941)
# conditionSummary: at 0.1 µM
Label 1 (yes) for high-side inhibition (at or above 4%) and 0 (no) for low-side inhibition (below it).

substanceSmiles: Nc1nc(-c2ccc(F)cc2)c(-c2ccc3ncccc3n2)s1
label: 0 (no)
--
substanceSmiles: CCn1c(-c2nonc2N)nc2cnc(Oc3cccc(NC(=O)c4ccc(N(C)C)cc4)c3)cc21
label: 0 (no)
--
substanceSmiles: CCc1nn2ncccc2c1-c1ccnc(NC2CC2)n1
label: 0 (no)
--
substanceSmiles: COc1ccc2c(-c3ccnc(Nc4cccc(OC(F)(F)F)c4)n3)cnn2n1
label: 1 (yes)
--
substanceSmiles: CCn1c(-c2nonc2N)nc2c(C#CC(C)(C)O)ncc(OC3CCNCC3)c21
label: 0 (no)

###

# tgt: Tyrosine-protein kinase JAK1 (Homo sapiens) (UniProt P23458)
# Sequence (P23458 whole entry): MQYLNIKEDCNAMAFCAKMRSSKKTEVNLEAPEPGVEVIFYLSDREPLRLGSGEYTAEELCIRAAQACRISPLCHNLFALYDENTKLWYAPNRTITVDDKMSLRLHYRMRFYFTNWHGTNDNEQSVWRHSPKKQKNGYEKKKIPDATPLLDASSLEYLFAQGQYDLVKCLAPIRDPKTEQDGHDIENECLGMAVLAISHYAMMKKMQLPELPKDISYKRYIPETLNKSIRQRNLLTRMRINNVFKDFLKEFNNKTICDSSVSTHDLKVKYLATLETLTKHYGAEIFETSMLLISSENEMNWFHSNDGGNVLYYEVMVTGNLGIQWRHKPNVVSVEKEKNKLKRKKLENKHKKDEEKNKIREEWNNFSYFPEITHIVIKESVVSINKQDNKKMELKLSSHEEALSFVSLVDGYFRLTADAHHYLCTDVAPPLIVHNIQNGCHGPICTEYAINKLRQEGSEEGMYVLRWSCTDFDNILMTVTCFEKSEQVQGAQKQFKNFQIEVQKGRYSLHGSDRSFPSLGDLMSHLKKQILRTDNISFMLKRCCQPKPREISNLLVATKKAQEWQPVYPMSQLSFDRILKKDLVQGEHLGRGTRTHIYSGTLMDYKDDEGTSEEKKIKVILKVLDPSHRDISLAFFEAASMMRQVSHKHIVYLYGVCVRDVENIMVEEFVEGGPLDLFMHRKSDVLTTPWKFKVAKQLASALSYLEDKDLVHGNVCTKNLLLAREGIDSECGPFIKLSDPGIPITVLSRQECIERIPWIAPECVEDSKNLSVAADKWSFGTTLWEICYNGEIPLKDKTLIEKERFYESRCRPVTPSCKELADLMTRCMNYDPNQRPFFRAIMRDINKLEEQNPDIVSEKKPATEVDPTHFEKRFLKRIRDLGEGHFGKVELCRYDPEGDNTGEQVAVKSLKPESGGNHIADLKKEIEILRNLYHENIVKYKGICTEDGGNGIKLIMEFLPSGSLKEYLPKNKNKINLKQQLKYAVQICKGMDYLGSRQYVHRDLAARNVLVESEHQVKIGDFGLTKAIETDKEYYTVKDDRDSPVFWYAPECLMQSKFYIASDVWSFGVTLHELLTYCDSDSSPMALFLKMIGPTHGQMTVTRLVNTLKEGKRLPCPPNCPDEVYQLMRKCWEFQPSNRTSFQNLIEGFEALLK
# conditionSummary: at 0.1 µM
# Description: GSK_PKIS: JAK1 mean inhibition at 0.1 uM [Nanosyn]
Below, each entry is listed alongside its reported inhibition.

substanceSmiles: CN1CCC(n2cnc(-c3ccc(F)cc3)c2-c2ccnc(Nc3ccccc3)n2)CC1
readoutUnit: %
inhibition: 1.51
--
substanceSmiles: COc1cc(/C=N/Nc2ncnc3[nH]ncc23)ccc1O
readoutUnit: %
inhibition: 8.12
--
substanceSmiles: CCn1c(-c2nonc2N)nc2ccccc21
readoutUnit: %
inhibition: 5.98

###

# tgt: Tyrosine-protein kinase Lyn (Homo sapiens) (UniProt P07948)
# Sequence (P07948 2-512 limits assumed): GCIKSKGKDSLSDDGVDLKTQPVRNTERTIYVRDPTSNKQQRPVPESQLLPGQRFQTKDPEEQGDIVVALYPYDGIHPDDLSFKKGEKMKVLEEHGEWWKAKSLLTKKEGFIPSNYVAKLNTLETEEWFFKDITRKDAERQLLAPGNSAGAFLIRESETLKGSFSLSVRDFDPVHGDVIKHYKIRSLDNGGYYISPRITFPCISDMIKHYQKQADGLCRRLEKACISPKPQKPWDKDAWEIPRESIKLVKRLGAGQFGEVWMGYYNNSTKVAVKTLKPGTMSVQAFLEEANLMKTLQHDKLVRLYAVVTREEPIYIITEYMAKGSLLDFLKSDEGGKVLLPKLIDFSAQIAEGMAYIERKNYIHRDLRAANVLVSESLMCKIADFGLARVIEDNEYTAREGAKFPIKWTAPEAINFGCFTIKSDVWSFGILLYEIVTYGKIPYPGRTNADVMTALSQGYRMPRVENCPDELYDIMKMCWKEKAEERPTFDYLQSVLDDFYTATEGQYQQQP
# conditionSummary: at 1 µM
# Description: GSK_PKIS: LYN B (splice variant) mean inhibition at 1 uM [Nanosyn]
Assign a class from recorded inhibition; defined classes: LOW (below 3%), MEDIUM (3% to below 10%), HIGH (10% or more)

compound: CNC(=O)c1cncc(/C=C/c2ccccc2Cl)c1
label: MEDIUM
--
compound: COc1cc(/C=N/Nc2ncnc3[nH]ncc23)ccc1O
label: HIGH
--
compound: COc1ccc2[nH]c3c4[nH]c5ccc(OC)cc5c4c4c(c3c2c1)C(=O)NC4=O
label: HIGH
--
compound: N#Cc1c(NC(=O)c2ccc(F)cc2)sc2c1CCCC2
label: LOW
--
compound: CCCN(CCS(C)(=O)=O)Cc1ccc(-c2ccc3ncnc(Nc4ccc(OCc5cccc(F)c5)c(Cl)c4)c3c2)o1
label: MEDIUM
--
compound: COc1ccc(CNC(=O)c2ccc(-c3cc(-c4nnc(C)o4)ccc3C)cc2)cc1
label: MEDIUM
--
compound: Fc1ccc(-c2nn3ncccc3c2-c2ccnc(Nc3ccc4c(c3)OCCO4)n2)cc1
label: HIGH
--
compound: c1ccc(COc2ccc(Nc3ncnc4ccc(-c5ccco5)cc34)cc2)cc1
label: LOW
--
compound: c1cc(-c2cnn3nc(N4CCOCC4)ccc23)nc(NC2CC2)n1
label: MEDIUM
--
compound: Clc1ccc(-c2nn3ncccc3c2-c2ccnc(Nc3ccccc3)n2)cc1
label: HIGH
--
compound: CCc1nn2ncccc2c1-c1ccnc(NC2CC2)n1
label: MEDIUM
--
compound: O=S(=O)(CCNCc1ccc(-c2ccc3ncnc(Nc4ccc(OCc5cccc(F)c5)c(Cl)c4)c3c2)o1)c1ccccc1
label: MEDIUM
--
compound: CNC(=O)c1cccc(C#Cc2cncnc2Nc2ccc(OCc3cccc(F)c3)c(Cl)c2)c1
label: LOW
--
compound: CCN1CCC(CC(=O)Nc2n[nH]c3nnc(-c4cccc(F)c4F)cc23)CC1
label: LOW
--
compound: CC(=O)Nc1cccc(C#Cc2cncnc2Nc2ccc(OCc3cccc(F)c3)c(Cl)c2)c1
label: LOW
--
compound: COc1cccc(-n2ncc3c(N/N=C/c4ccc(F)cc4)ncnc32)c1
label: HIGH
--
compound: COc1ccc(-c2cc(-c3c[nH]nc3-c3ccccn3)ccn2)cc1
label: HIGH
--
compound: CC1=C(C(=O)Nc2cc(Cl)c3[nH]ncc3c2)C(c2ccc(C(F)(F)F)cc2)CC(=O)N1 (stereo not given)
label: MEDIUM
--
compound: NS(=O)(=O)c1ccc(N/N=C2\C(=O)Nc3ccc4ncccc4c32)cc1
label: HIGH
--
compound: CS(=O)(=O)CCNCc1ccc(-c2ccc3ncnc(Nc4ccc(OCc5ccccc5)c(C(F)(F)F)c4)c3c2)o1
label: LOW
